Molecular target: human GPC3 (Glypican-3) (human, UniProt P51654 25-580)
Sequence (P51654 25-580, form in doubt): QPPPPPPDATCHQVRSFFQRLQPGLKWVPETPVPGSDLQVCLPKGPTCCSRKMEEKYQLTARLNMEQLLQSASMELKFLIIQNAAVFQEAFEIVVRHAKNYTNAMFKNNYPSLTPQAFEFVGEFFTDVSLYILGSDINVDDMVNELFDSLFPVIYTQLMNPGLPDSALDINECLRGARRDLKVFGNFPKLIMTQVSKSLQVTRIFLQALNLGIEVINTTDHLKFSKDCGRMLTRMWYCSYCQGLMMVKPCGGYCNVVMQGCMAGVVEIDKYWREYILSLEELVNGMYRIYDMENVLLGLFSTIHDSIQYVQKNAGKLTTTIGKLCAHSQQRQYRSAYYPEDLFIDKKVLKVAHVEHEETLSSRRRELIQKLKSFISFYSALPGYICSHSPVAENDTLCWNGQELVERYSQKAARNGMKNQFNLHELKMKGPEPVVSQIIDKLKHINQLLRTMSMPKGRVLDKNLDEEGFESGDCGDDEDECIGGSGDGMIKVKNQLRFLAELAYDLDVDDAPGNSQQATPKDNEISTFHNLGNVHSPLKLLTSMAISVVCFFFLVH
Assay: cell-based or functional assay
Measured parameter: Percentage reduction of GPC3 on cell surface (%), Huh7 cells, 2 h
Number in %, nothing else.

Hu 52H5D3B8-8-mc-AAN-Exatecan (ADC-1) (antibody, human IgG1, kappa, DAR 8.0, V domains shown, mc-AAN-Exatecan on cysteine thiols freed by reduction of interchain disulfide bonds; DAR 8.0 for the whole antibody; positions not given, also called Hu 52H5D3B8-8-MC-AAN-Exa (ADC-1)) VH: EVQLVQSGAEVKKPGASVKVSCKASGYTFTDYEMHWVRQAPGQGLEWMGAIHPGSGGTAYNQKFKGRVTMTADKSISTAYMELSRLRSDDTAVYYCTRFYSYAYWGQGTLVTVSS VL: DVVMTQTPLSLSVTPGQPASISCRSSQSLVHSNGNTYLQWYLQKPGQSPQLLIYKVSNRFSGVPDRFSGSGSGTDFTLKISRVEAEDVGVYFCSQSIHVPYTFGGGTKVEIKR :: 52.2

Moving on to another binder below.
[ask] Could you tell me which Percentage reduction of GPC3 on cell surface (%), Huh7 cells, 2 h is on file for Hu 52H5D3B8-8 (antibody, human IgG1, kappa, V domains shown, also called humanized GPC3 antibody Hu 52H5D3B8-8; GPC3 antibody) VH: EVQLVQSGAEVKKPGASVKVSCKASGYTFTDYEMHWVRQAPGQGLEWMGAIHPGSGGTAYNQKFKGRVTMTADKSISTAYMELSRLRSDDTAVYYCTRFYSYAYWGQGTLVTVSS VL: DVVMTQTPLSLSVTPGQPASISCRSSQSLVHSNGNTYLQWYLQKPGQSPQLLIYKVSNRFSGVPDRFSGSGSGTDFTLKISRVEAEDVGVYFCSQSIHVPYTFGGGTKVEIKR ?
[reply] 52.8
